Experiment: blockers of ER-stress CHOP reporter expression – cell-based, unfolded protein response, luciferase reporter, primary screen (AID 2732);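 note: 0% = tunicamycin plus vehicle and 100% = wells without tunicamycin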
Conditions: CHO-K1 CHOP-promoter luciferase, tunicamycin-induced, 15-18 h; at 10 µM; active compounds read high
About 8,200 (3.7%) of roughly 220,000 compounds were called active. The list comes from a sample in which actives are over-represented; it also holds close analogues and randomly drawn compounds.
MEASUREMENT LABEL: inhibition (%)
Return type: number; implicit unit %.

Solved entries:
[[record]]
molecule = "Cc1ccc(-c2csc(NC(=O)Cn3[nH]c(=O)c4ccccc4c3=O)n2)cc1"
quantitative_result = 80

[[record]]
molecule = "CC(C)COC(=O)n1c(=O)oc2ccc(S(=O)(=O)N3CCCCC3)cc21"
quantitative_result = 11.3

[[record]]
molecule = "O=C(Nc1ccc(Cl)cc1)Nc1nnc(/C=C/c2ccccc2)s1"
quantitative_result = 46.8

[[record]]
molecule = "COc1ccc(CCN2C(=O)c3[nH]nc(-c4ccccc4O)c3C2c2ccc(C)cc2)cc1OC (stereo not drawn)"
quantitative_result = 75.2

[[record]]
molecule = "Cc1cccc(-c2noc(-c3ccc(F)cc3)n2)c1"
quantitative_result = 12


[in] Indicate its recorded inhibition; the molecule in question is O=C(N/N=C/c1ccc(OCc2ccccc2)cc1)c1ccc(O)cc1
[out] -37.6

[in] Give me measured inhibition, please, for this molecule: COc1cc(OC)c2ccc(=O)oc2c1C(CCN1CCN(c2ccccc2)CC1)c1ccc2c(c1)OCO2 (stereo not drawn)
[out] 6.77

[in] Annotate the molecule Cc1ccc(NC(=S)N2CCCC(c3ccccc3)=N2)cc1 with its measured inhibition.
[out] 16.8

[in] Dear colleague, please send me the reported inhibition for Cc1ccc(-c2csc(NC(=O)c3cccs3)n2)cc1 when you can.
[out] 78.4

[in] Look up and report measured inhibition for this entry: Cc1ccc(OCC(=O)Nc2ccc(-c3nc4ncccc4o3)cc2)cc1
[out] -4.24

[in] Provide only the value of recorded inhibition for CC1=C(C)CC2C(=O)N(c3cccc4ccccc34)C(=O)C2C1 (stereo not drawn)
[out] 19.9

[in] Return value of inhibition for input CN(C(=O)Nc1ccc(Cl)cc1)n1cnc2ccccc2c1=O , no commentary.
[out] 20.1

[in] Provide inhibition value for the following molecule: Cc1ccc(-c2nnc(-c3ccc(NC(=O)c4cccs4)cc3)o2)cc1
[out] 89

###

Entries and their inhibition values follow.
Test: blockers of ER-stress CHOP reporter expression – cell-based, unfolded protein response, luciferase reporter, primary screen (AID 2732);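 note: 0% = tunicamycin plus vehicle and 100% = wells without tunicamycin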
Conditions: CHO-K1 CHOP-promoter luciferase, tunicamycin-induced, 15-18 h; at 10 µM; active compounds read high
About 8,200 (3.7%) of roughly 220,000 compounds were called active. For the sample, actives were picked, then their nearest neighbours and some compounds at random.
Express it in %; write the number only.

[[record]]
compound = "O=c1c(/C=N/O)coc2ccc(Cl)cc12"
unit_label = "%"
quantitative_result = 3.04

[[record]]
compound = "COC(=O)c1c(C)[nH]c(C(=O)/C=C/c2ccc(Cl)cc2)c1C"
unit_label = "%"
quantitative_result = 85

[[record]]
compound = "O=P(O)(CN1CCCCCC1)C1Cc2ccccc2C1"
unit_label = "%"
quantitative_result = 4.35

[[record]]
compound = "CCOC(=O)CN(C)S(=O)(=O)c1ccc(-c2cc(C(=O)OC)sc2C(F)(F)F)cc1"
unit_label = "%"
quantitative_result = -2.09

[[record]]
compound = "CCCCNc1nc2c(c(=O)n(C)c(=O)n2C)n1Cc1cccc(OC)c1"
unit_label = "%"
quantitative_result = 17.1

[[record]]
compound = "Cn1c(=O)c2c(nc(NCCc3ccccc3)n2Cc2ccccc2)n(C)c1=O"
unit_label = "%"
quantitative_result = 61.2

[[record]]
compound = "O=C(CNC(c1ccccc1)c1ccccc1)Nc1ccc(F)cc1"
unit_label = "%"
quantitative_result = 23.2

[[record]]
compound = "COC(=O)c1c(C)oc(C)c1S(=O)(=O)NCc1ccc(Cl)cc1"
unit_label = "%"
quantitative_result = 30.1


[in] Determine its reported inhibition: COc1ccc(NC(=O)C2=NNC(=O)CC2)cc1S(=O)(=O)N1CCCCC1
[out] 14.5

[in] Note down inhibition recorded for COc1ccc(N2CCC(CNC(=S)Nc3c(C)cccc3C)C2)cc1 (stereo not drawn)
[out] 18.6

[in] Kindly indicate its recorded inhibition. Item: COc1cc(C(=O)OC(C)C(=O)NCC2CCCCC2)cc(NC(=O)c2ccco2)c1OC (stereo not drawn)
[out] 101

[in] State its inhibition for this compound: CC(=O)NC(Cc1ccccc1)C(=O)NC1CCN(c2ncccc2[N+](=O)[O-])CC1 (stereo not drawn)
[out] 19.6

[in] Look up and state reported inhibition for Cc1ccc(NNC(=O)c2c(F)cccc2Cl)cc1Cl
[out] 4.19

[in] Entry COc1ccc(-c2cc(C3CCN(c4ncccc4[N+](=O)[O-])CC3)[nH]n2)cc1 needs its inhibition filled in; supply it.
[out] 75.9

[in] For the compound Cc1nc2ccccc2cc1O , give its measured inhibition value.
[out] -6.19

###

Test: blockers of ER-stress CHOP reporter expression – cell-based, unfolded protein response, luciferase reporter, primary screen (AID 2732);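 note: 0% = tunicamycin plus vehicle and 100% = wells without tunicamycin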
Conditions: CHO-K1 CHOP-promoter luciferase, tunicamycin-induced, 15-18 h; at 10 µM
Out of some 220,000 compounds screened, about 8,200 (3.7%) were called active.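 How the source made its calls: active means compounds that reduced the stress-induced luciferase reporter signal by more than about 70% of percent inhibition (limit read from the data); inactive means the rest.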 Many of the other results were omitted from the sample, so actives are more common in it than they were.
The reply should name one outcome from active, inactive

Observe how each entry below is paired with its result.
[[record]]
compound = "CC(C)Cc1ccc(C(C)C(=N)N)cc1 (centres undefined)"
qualitative_label = "inactive"

[[record]]
compound = "O=C(Nc1cccnc1Oc1ncnc2cc(Cl)ccc12)c1ccc(F)cc1"
qualitative_label = "inactive"

[[record]]
compound = "CCc1ccc(NC(=O)CS(=O)CC(=O)NCCCc2ccccc2)cc1 (centres undefined)"
qualitative_label = "active"

[[record]]
compound = "Cc1ccccc1Nc1c(-c2ccccc2)nc2ncccn12"
qualitative_label = "inactive"

[[record]]
compound = "CN1CCN(c2ccc(CNS(=O)(=O)c3cccc(F)c3)cc2)CC1"
qualitative_label = "inactive"

[[record]]
compound = "CC(=O)NC(CC(=O)Nc1nccs1)c1ccccc1 (centres undefined)"
qualitative_label = "inactive"


[in] Name the outcome recorded for CC(C)Cn1c(N)c(C(=O)NCc2cccs2)c2nc3ccccc3nc21 in the assay.
[out] active

[in] Hi, sorry to bother you, what did the test record for CCCCNC(=O)c1c[nH]c2ccc(S(=O)(=O)Nc3ccc(OCC)cc3)cc2c1=O ?
[out] active

[in] # outcome recorded in this test, key = CCC(C)NC(=O)c1c(N)n(/N=C/c2cccs2)c2nc3ccccc3nc12 (centres undefined)
[out] inactive

[in] Field: outcome | Entry: N#Cc1c(C(F)(F)F)cc(-c2cccs2)nc1N1CCCCC1
[out] inactive

[in] Just curious, what result did COC(=O)C(C)Sc1nc2c(c(=O)n(C)c(=O)n2C)n1Cc1cccc(C)c1 (centres undefined) get here?
[out] inactive

[in] Name the outcome recorded for Cc1cc(=O)[nH]c(S)c1C#N in the assay.
[out] inactive

[in] Could you kindly confirm the outcome this assay logged for O=C(Nc1cc(C(F)(F)F)ccc1Cl)C(=O)N1CCCCC1 ?
[out] inactive

[in] What call does the record list for CS(=O)(=O)c1ccc2nc(NC(=O)c3ccc(N4CCCC4=O)cc3)sc2c1 ?
[out] inactive

[in] In this assay, the call recorded for O=C(Nc1nc2ccc([N+](=O)[O-])cc2s1)c1ccncc1 was what?
[out] inactive

[in] Just curious, what result did CC1(C)C=C2[C@H]3CC[C@@H]4[C@@]5(C)CCC(=O)C(C)(C)[C@@H]5CC[C@@]4(C)[C@]3(C)CC[C@@]2(C(=O)O)CC1 get here?
[out] active

[in] Identify the outcome logged in this assay for the compound shown: C/C(Cl)=C\Cn1c(Nc2cccc(C)c2)nc2c1c(=O)n(C)c(=O)n2C
[out] active

[in] So what was the verdict on O=C(CCl)Nc1cccc(CP(=O)(c2ccccc2)c2ccccc2)c1 in this test?
[out] inactive

[in] What classification did O=C(O)C(c1ccccc1)C1(O)CCCCC1 (centres undefined) end up with in this test?
[out] inactive

###

Experiment: blockers of ER-stress CHOP reporter expression – cell-based, unfolded protein response, luciferase reporter, primary screen (AID 2732);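 note: 0% = tunicamycin plus vehicle and 100% = wells without tunicamycin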
Conditions: CHO-K1 CHOP-promoter luciferase, tunicamycin-induced, 15-18 h; at 10 µM; active compounds read high
The campaign covered roughly 220,000 compounds. About 8,200 (3.7%) were called active. Many of the other results were omitted from the sample, so actives are more common in it than they were.
MEASUREMENT LABEL: inhibition (%)
Reply numerically in %, unit not repeated.

As a guide, the following entries are already answered.
[[record]]
compound = "CC1(C)C2CCC1(C)C(OC(=O)CCn1ccnc1)C2 (stereo unspecified)"
quantitative_result = 4.53

[[record]]
compound = "CCOC(=O)C1=C(C)NC(=S)NC1c1cccs1 (stereo unspecified)"
quantitative_result = 0.7

[[record]]
compound = "Nc1nc(O)c(CC(=O)O)s1"
quantitative_result = 9.65

[[record]]
compound = "CCOC(=O)c1cn(CC)c2cc(F)c(F)cc2c1=O"
quantitative_result = -15.5

[[record]]
compound = "COc1cc(C)c(Cl)cc1S(=O)(=O)n1ccnc1"
quantitative_result = 14.6


Let us examine a further case.
[in] Look up and report measured inhibition for this entry: CC(C)(C)C(=O)c1cnc(Nc2ccccc2)s1
[out] 4

Attribution: PubChem BioAssay AID2732
